The measured values listed here are drawn from patent US11912693B2.

Study Target: human sphingosine-1-phosphate receptor 1 (S1P1) (Homo sapiens (Human))
Method: β-Arrestin2 recruitment assay (PathHunter), S1P1 CHO-K1 cells
Assay type: cell-based
Condition Set: β-arrestin2 recruitment, S1P1 CHO-K1 cells
Let's look at some molecules and their measured hS1P1 B-arrestin2 pEC50.

>>> meas_value("CC(C)Nc1ccc(-c2nnc(-c3ccc4c(c3)CCC(=O)N4)o2)cc1C#N")
">5"

Input: State, in one line, measured hS1P1 B-arrestin2 pEC50 of Cc1ccc(-c2noc(-c3ccc4c(c3)nnn4C3CCCCC3)n2)cc1
Output: <5

Input: State, in one line, measured hS1P1 B-arrestin2 pEC50 of CC(C)n1ccc2cc(-c3nc(-c4ccccc4C(F)(F)F)cs3)cnc21
Output: <5

Input: State, in one line, measured hS1P1 B-arrestin2 pEC50 of Cc1ccccc1-c1noc(-c2cnc3c(c2)nnn3C(C)C)n1
Output: >5

Input: State, in one line, measured hS1P1 B-arrestin2 pEC50 of CC(C)(CO)n1nnc2cc(-c3noc(-c4ccncc4C(F)(F)F)n3)ccc21
Output: <5

---

Let's look at some compounds and their measured hS1P1 B-arrestin2 pEC50.
Study Target: human sphingosine-1-phosphate receptor 1 (S1P1) (Homo sapiens (Human), UniProt P21453)
Sequence (P21453 whole entry, looked up): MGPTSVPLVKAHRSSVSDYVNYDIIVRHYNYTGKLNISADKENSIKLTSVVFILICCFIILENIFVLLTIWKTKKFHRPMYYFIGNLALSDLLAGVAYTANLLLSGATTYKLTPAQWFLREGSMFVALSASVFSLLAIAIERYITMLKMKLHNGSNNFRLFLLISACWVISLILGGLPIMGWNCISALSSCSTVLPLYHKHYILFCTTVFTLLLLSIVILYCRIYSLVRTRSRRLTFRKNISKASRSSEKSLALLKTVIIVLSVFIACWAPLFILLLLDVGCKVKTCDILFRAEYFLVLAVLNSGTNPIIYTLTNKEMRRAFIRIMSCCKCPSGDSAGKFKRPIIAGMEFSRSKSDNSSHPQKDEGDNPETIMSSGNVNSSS
Sequence (P32121 whole entry partner, looked up): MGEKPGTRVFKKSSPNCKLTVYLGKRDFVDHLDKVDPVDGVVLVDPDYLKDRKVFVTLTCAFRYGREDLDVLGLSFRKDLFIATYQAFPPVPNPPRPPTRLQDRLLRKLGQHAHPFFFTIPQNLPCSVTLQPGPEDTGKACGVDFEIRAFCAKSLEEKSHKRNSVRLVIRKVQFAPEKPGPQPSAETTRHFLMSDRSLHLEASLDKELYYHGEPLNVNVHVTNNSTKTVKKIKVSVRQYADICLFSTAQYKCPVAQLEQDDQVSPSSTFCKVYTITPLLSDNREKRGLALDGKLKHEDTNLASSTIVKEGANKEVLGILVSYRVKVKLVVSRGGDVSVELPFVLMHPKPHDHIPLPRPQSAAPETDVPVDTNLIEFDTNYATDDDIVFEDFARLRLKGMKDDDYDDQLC
Method: β-Arrestin2 recruitment assay (PathHunter), S1P1 CHO-K1 cells
Type: cell-based
Condition Set: β-arrestin2 recruitment, S1P1 CHO-K1 cells
Protocol: Stable clonal Chinese hamster ovary K1 (CHO-K1) cells co-expressing EA-β-arrestin2 and the human sphingosine-1-phosphate receptor 1 (NM_001400, S1P1) with a C-terminal Prolink™ tag were purchased from DiscoverX corporation (Cat #: 93-0207C2). […] Agonist-promoted β-arrestin2 recruitment to the sphingosine-1-phosphate 1 receptor was determined using the β-arrestin PathHunter®) Detection kit (DiscoverX Corporation, Cat #: 93-0001). […]

Field: example entries. Status: answers known.
>>> meas_value("Cc1ccc2nc(-c3ccc4c(c3)nnn4CC(C)C)oc2c1 [Compound 448]")
"<5"
>>> meas_value("Cc1nc2cc(-c3nc(-c4ccc5c(c4)nnn5C(C)C)no3)ccc2[nH]1 [Compound 571]")
">5"
>>> meas_value("COc1cccc(OC)c1-c1noc(-c2ccc3c(ccn3C(C)C)c2)n1 [Compound 325]")
"<5"

Input: State, in one line, measured hS1P1 B-arrestin2 pEC50 of O=C1CC(CO)(CO)Oc2ccc(-c3nc(-c4cccnc4)no3)cc21 [Compound 478]
Output: <5

Input: State, in one line, measured hS1P1 B-arrestin2 pEC50 of O=C1CC2(CCOCC2)Oc2ccc(-c3nc(-c4cccnc4)no3)cc21 [Compound 214]
Output: <5

Input: State, in one line, measured hS1P1 B-arrestin2 pEC50 of Cc1cc(-c2nc(-c3ccc4c(c3)nnn4C(C)C)no2)ccn1 [Compound 86]
Output: <5

---

Study Target: human sphingosine-1-phosphate receptor 1 (S1P1) (Homo sapiens (Human))
Method: β-Arrestin2 recruitment assay (PathHunter), S1P1 CHO-K1 cells
Format: cell-based
Condition Set: CHO-K1; efficacy (SPAN) normalized to fingolimod; read-out: hS1P1 B-arrestin2 SPAN
Assay Readout: Emax

Field: example entries. Status: answers known.
>>> meas_value("Cc1ccccc1-c1coc(-c2ccc3c(c2)nnn3C(C)C)n1")
"> 75%"
>>> meas_value("Cc1cnc(-c2noc(-c3ccc4c(c3)nnn4C3CCOCC3)n2)cn1")
"< 75%"
>>> meas_value("CC(C)n1nnc2cc(-c3nc4c(o3)-c3ccccc3CC4)ccc21")
"> 75%"
>>> meas_value("Cc1ccncc1-c1nc(-c2ccc3c(c2)nnn3C(C)(C)CO)no1")
"< 75%"
>>> meas_value("COc1ccncc1-c1nc(-c2ccc3c(c2)nnn3C(C)C)no1")
"> 75%"
>>> meas_value("CC(C)n1nnc2cc(-c3nc(-c4ccccc4OC(F)(F)F)no3)ccc21")
"> 75%"
>>> meas_value("Cc1cccc2oc(-c3ccc4c(c3)nnn4C(C)C)nc12")
"> 75%"
>>> meas_value("Cc1ccncc1-c1noc(-c2ccc3c(c2)nnn3CC(C)(C)O)n1")
"< 75%"
>>> meas_value("COc1cnccc1-c1nc(-c2ccc3c(c2)nnn3C(C)C)no1")
"> 75%"
>>> meas_value("COC(=O)NS(=O)(=O)n1c(=O)oc2cc(-c3nnc(-c4ccccc4OC)o3)ccc21")
"< 75%"

Input: State, in one line, measured Emax of CCC1(CC)CC(=O)c2cc(-c3nc(-c4ccncc4)no3)ccc2O1
Output: < 75%

Input: State, in one line, measured Emax of Brc1ccccc1-c1noc(-c2ccc3c(c2)nnn3C2CC2)n1
Output: > 75%

Input: State, in one line, measured Emax of N#Cc1cc(-c2nc(-c3ccc4c(c3)CCC(=O)N4)no2)ccc1NCC(F)F
Output: > 75%
